Reference source for all entries: ChEMBL document CHEMBL2157934

molecular target: C-C chemokine receptor type 3 (Homo sapiens, UniProt P51677); assay: Antagonist activity at CCR3 receptor; assay type: functional
Recorded pIC50 by entry
As a rule, pIC50 stands for the negative log10 of the concentration, concentration in M.

Here is how some compounds turned out for pIC50.
• O=C1N(CCc2ccccc2)CCC12CCN(Cc1ccc3cc(F)ccc3c1)CC2 = 6.22
• O=C(Nc1ccccc1OCCOCCO)N[C@@H]1CCN(Cc2ccc3cc(F)ccc3c2)C1 = 6.96
• CS(=O)(=O)N1CCC(NC(=O)N[C@@H]2CCN(Cc3ccc4cc(F)ccc4c3)C2)CC1 = 7.85
• O=C(Nc1ccccc1CCO)N[C@@H]1CCN(Cc2ccc3cc(F)ccc3c2)C1 = 7.92

Value wanted: pIC50 (C-C chemokine receptor type 3 (Homo sapiens, UniProt P51677)) of entry O=C(Nc1cccc(OCCO)c1)N[C@@H]1CCN(Cc2ccc3cc(F)ccc3c2)C1
7.55

Entry COCCOc1ccccc1NC(=O)N[C@@H]1CCN(Cc2ccc3cc(F)ccc3c2)C1 please
7.15

Entry O=C(Nc1ccccc1CCCO)N[C@@H]1CCN(Cc2ccc3cc(F)ccc3c2)C1 please
7.62

* * *

Biological target: C-C chemokine receptor type 3 (Homo sapiens)
Sequence (P51677 whole entry): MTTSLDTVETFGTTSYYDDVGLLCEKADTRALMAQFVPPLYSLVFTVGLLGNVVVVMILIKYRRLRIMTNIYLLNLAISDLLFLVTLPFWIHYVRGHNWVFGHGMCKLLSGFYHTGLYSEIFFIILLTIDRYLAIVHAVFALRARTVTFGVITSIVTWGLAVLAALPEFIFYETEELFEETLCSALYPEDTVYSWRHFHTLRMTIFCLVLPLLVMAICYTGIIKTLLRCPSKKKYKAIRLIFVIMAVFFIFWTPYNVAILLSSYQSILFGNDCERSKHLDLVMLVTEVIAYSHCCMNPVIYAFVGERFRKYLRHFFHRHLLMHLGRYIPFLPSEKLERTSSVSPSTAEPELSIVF
Assay: Antagonist activity at CCR3 receptor in human eosinophils assessed as inhibition of CCL11-induced degranulation after 4 hrs by ELISA
Format: functional
MEASUREMENT_NAME: pIC50
As a rule, pIC50 stands for the negative log10 of the concentration, concentration in M.

What value of pIC50 has been reported for the following compound? O=C(Nc1ccccc1OCCO)N[C@@H]1CCN(Cc2ccc3cc(F)ccc3c2)C1
9.06

* * *

biological target: C-C chemokine receptor type 3 (Homo sapiens); test: Antagonist activity at CCR3 receptor; format: functional
MEASUREMENT_NAME: IC50

Here is how some molecules turned out for IC50.
• NC(=O)COc1ccccc1NC(=O)N[C@@H]1CCN(Cc2ccc3cc(F)ccc3c2)C1 = 110 nM
• O=C(NC1CCN(Cc2ccccc2)CC1)N1CCCN(Cc2ccc3cc(F)ccc3c2)CC1 = 380 nM

What value of IC50 has been reported for the following molecule? COCc1ccccc1NC(=O)N[C@@H]1CCN(Cc2ccc3cc(F)ccc3c2)C1
44 nM

Entry O=C(Nc1ccccc1COCCO)N[C@@H]1CCN(Cc2ccc3cc(F)ccc3c2)C1 please
9.9 nM

Entry O=C(Nc1ccccc1)N[C@@H]1CCN(Cc2ccc3cc(F)ccc3c2)C1 please
50 nM

Entry CN(C)CCOc1ccccc1NC(=O)N[C@@H]1CCN(Cc2ccc3cc(F)ccc3c2)C1 please
50 nM

Entry O=C(Nc1ccccc1OCCO)N[C@@H]1CCN(Cc2ccc3cc(F)ccc3c2)C1 please
1.7 nM

Entry O=C1OC2(CCN(Cc3ccc4cc(F)ccc4c3)CC2)c2ccccc2N1Cc1ccccc1 please
2000 nM

Entry O=C(Nc1ccccc1OCCCCO)N[C@@H]1CCN(Cc2ccc3cc(F)ccc3c2)C1 please
51 nM

Entry O=C(Nc1ccc(OCCO)cc1)N[C@@H]1CCN(Cc2ccc3cc(F)ccc3c2)C1 please
71 nM
